# System: Staphylococcus aureus (S. aureus)
# protocol description: In vitro antibacterial activity, progressive double dilutions, culture turbidity
# Format: cell-based
# assay setup: Staphylococcus aureus, value in parentheses, mean ± SD, read-out: IC50
metric name: IC50 (µM)
Give your result in µM as a bare value.

Field IC50 (entry Cc1nnc(S)s1 [mtdztH, 5-methyl-1,3,4-thiadiazole-2-thiol, reference compound] ) reads 159

----------
# Tested on: Bacillus cereus (B. cereus)
# protocol description: In vitro antibacterial activity, progressive double dilutions, culture turbidity
# Format: cell-based
# assay setup: Bacillus cereus, value in parentheses, mean ± SD, read-out: IC50
metric name: IC50 (µM)
Give your result in µM as a bare value.

Field IC50 (entry Cc1nnc(S)s1 [mtdztH, 5-methyl-1,3,4-thiadiazole-2-thiol, reference compound] ) reads 159
